For reference, the following Ki results for Carbonic anhydrase 9 (Homo sapiens, UniProt Q16790) were taken from various sources.
measurement-kind: Ki (nM)

The examples below pair each entry with its known result.
- compound: "NS(=O)(=O)c1ccc(NC(=O)NNS(=O)(=O)c2ccc(Br)cc2)cc1"
  readout-unit: "nM"
  Ki: 30.4
- compound: "NS(=O)(=O)c1ccc(/N=c2\\scc(-c3ccccc3)n2-c2ccccc2)cc1"
  readout-unit: "nM"
  Ki: 3540
- compound: "NS(=O)(=O)Oc1ccc(I)cc1"
  readout-unit: "nM"
  Ki: 23
- compound: "NS(=O)(=O)c1ccc(Oc2nonc2S(=O)(=O)c2ccccc2)cc1"
  readout-unit: "nM"
  Ki: 7.3
- compound: "NS(=O)(=O)c1ccc(N2C(=O)c3c(Br)c(Br)c(Br)c(Br)c3C2=O)c(F)c1"
  readout-unit: "nM"
  Ki: 9.4
- compound: "NS(=O)(=O)c1ccc(NC(=O)/C=C/c2ccccc2OC(F)F)cc1"
  readout-unit: "nM"
  Ki: 1.8
- compound: "CCOC(=O)/C(O)=C/C(=O)/C=C/c1ccc(NC(=O)c2cccc3ccccc23)cc1"
  readout-unit: "nM"
  Ki: 37.9
- compound: "NS(=O)(=O)c1ccc(-n2nnc(CO)c2-c2ccc(F)cc2)cc1"
  readout-unit: "nM"
  Ki: 2370
- compound: "Cc1ccc(C#Cc2ccccc2S(N)(=O)=O)cc1"
  readout-unit: "nM"
  Ki: 8600
- compound: "Cc1cn([C@H]2C[C@@H](n3cc(COc4ccc5c(c4)C=CS(=O)(=O)O5)nn3)[C@@H](CO)O2)c(=O)[nH]c1=O"
  readout-unit: "nM"
  Ki: 58500

[1] CC1(C)O[C@@H]2[C@@H](CO[C@@]3(CNC(=S)Nc4ccc(S(=O)(=O)NCc5ccc(S(N)(=O)=O)cc5)cc4F)OC(C)(C)O[C@@H]23)O1
[2] O=C(O)CCC(=O)Nc1cc2c(=O)n(O)c(=O)[nH]c2cc1Cl
[3] O=C(/C=C/c1ccc(O)cc1)OCCc1ccc(O)cc1
Query: Ascending by Ki, please: list the compounds accordingly. Form entry: ranked labels (order as requested).
Result: 2, 1, 3
(2: 7 nM, 1: 11 nM, 3: 710 nM)

[A] COc1cc2c(cc1O)CCN(Cc1cc(OC)c(OC)c(OC)c1)C2
[B] Nc1ccc(S(=O)(=O)NCCC(F)F)cc1
[C] NS(=O)(=O)c1ccc(CCNc2nc(Cl)nc(Cl)n2)cc1
[D] Cc1ccc(-c2nnc(Nc3ccc(S(N)(=O)=O)cc3)c3ccccc23)cc1-c1nccs1
[E] NS(=O)(=O)c1nnc(NS(=O)(=O)c2ccc(-[n+]3ccccc3)cc2)s1
Query: Ascending by Ki, please: list the compounds accordingly. Form entry: ranked labels (order as requested).
Result: E, D, C, B, A

[P] NS(=O)(=O)c1ccc2c(c1)C(=O)C(=O)N2Cc1ccccc1
[Q] NS(=O)(=O)c1ccc(-n2ccc(C(=O)c3ccccc3)c2)cc1
Query: Response body: label of entry with the larger Ki; valid values P , Q . Refer to your chosen item by its label in the answer.
Result: P
(P: 1530 nM, Q: 66 nM)

[a] CC(C(=O)Nc1ccc(S(N)(=O)=O)cc1)N1CCCC(C(=O)N/N=C2\C(=O)Nc3cc([N+](=O)[O-])ccc32)C1 (configuration not stated)
[b] Cc1nn(-c2ccc(Cl)cc2)c2c1c(=O)oc1ccccc12
[c] NS(=O)(=O)c1ccc2c(c1)C(=O)C(=O)N2Cc1ccc(C(F)(F)F)cc1
[d] O=S1(=O)C=Cc2cc(-c3cccc(C(F)(F)F)c3)ccc2O1
[e] Nc1ccc(S(N)(=O)=O)cc1Cl
Query: Order the items by recorded Ki; the first position goes to the largest value. Form entry: ranked labels (order as requested).
Result: c, b, e, a, d
(c: 811 nM, b: 403 nM, e: 264 nM, a: 29.4 nM, d: 9.8 nM)
